Taken from patent US20160368879A1.

- assay: Solvent solubility (butyl acetate, toluene or PGMEA)
- Assay type: physicochemical
- condition_label: toluene, 25° C.
Lab note: anything with Solvent solubility Toluene at or over 6 wt % counts as met; the rest go in not met.

>>> df
                                    compound  assigned_category
 0  O=C1c2cccc3c(Sc4ccccc4)ccc(c23)C(=O)N1OS(=O)(=O)C(F)(F)F [Example A-7]                met
 1  O=C(Oc1cc2c3c(cccc3c1)C(=O)N(OS(=O)(=O)C(F)(F)F)C2=O)c1c(F)c(F)c(F)c(F)c1F [Example A-12]                met
 2  CC(C)(C)c1cc2c3c(cc(C(C)(C)C)cc3c1)C(=O)N(OS(=O)(=O)C(F)(F)F)C2=O [Example A-13]                met
 3  CC1(C)C2CCC1(CS(=O)(=O)ON1C(=O)c3cccc4c(Oc5cccc(C(F)(F)F)c5)ccc(c34)C1=O)C(=O)C2 (stereo not drawn) [Example A-46]            not met
 4  CCCC(=O)Oc1cc2c3c(cccc3c1)C(=O)N(OS(=O)(=O)C(F)(F)F)C2=O [Example A-10]                met
 5  O=C1c2cccc3c(Br)ccc(c23)C(=O)N1OS(=O)(=O)C(F)(F)F [Example A-20]                met
 6  CCCC(=O)Oc1cc2c3c(cccc3c1)C(=O)N(OS(=O)(=O)c1c(F)c(F)c(F)c(F)c1F)C2=O [Example A-30]                met
 7  O=C1c2cccc3c(C(F)(F)C(F)(F)C(F)(F)C(F)(F)F)ccc(c23)C(=O)N1OS(=O)(=O)C(F)(F)F [Example A-16]                met
 8  CC1(C)C2CCC1(CS(=O)(=O)ON1C(=O)c3cccc4c(Oc5c(F)c(F)c(F)c(F)c5F)ccc(c34)C1=O)C(=O)C2 (stereo not drawn) [Example A-45]            not met
 9  O=C1c2cccc3c(Br)ccc(c23)C(=O)N1OS(=O)(=O)c1c(F)c(F)c(F)c(F)c1F [Example A-40]            not met
10  CC1(C)[C@@H]2CC[C@@]1(CS(=O)(=O)ON1C(=O)c3cccc4c([Si](C)(C)C)ccc(c34)C1=O)C(=O)C2 [Example A-58]            not met
11  CC1(C)C2CCC1(CS(=O)(=O)ON1C(=O)c3cccc4c(Br)ccc(c34)C1=O)C(=O)C2 (stereo not drawn) [Example A-60]            not met
12  O=C1c2cccc3c(Cl)ccc(c23)C(=O)N1OS(=O)(=O)C(F)(F)F [Example A-19]                met

---

- assay: Solvent solubility (butyl acetate, toluene or PGMEA)
- Assay type: physicochemical
- condition_label: toluene, 25° C.
- Description: In a test tube, 0.1 g of the synthesized photoacid generator was placed, and an organic solvent (butyl acetate, toluene or PGMEA) was added thereto in 0.2 g portions under a condition where the temperature was adjusted to 25° C. until the photoacid generator was completely dissolved. In this connection, in the case where the photoacid generator was not completely dissolved even when 20 g of the solvent was added, the photoacid generator was evaluated as one that was not dissolved.
Lab note: anything with Solvent solubility Toluene at or over 4 wt % counts as True; the rest go in False.

>>> print(df.to_string())
                                   compound  assigned_category
0  CC1(C)C2CCC1(CS(=O)(=O)ON1C(=O)c3cccc4c(C(=O)Cc5ccccc5)ccc(c34)C1=O)C(=O)C2 (stereo not drawn)              False
1  CC1(C)C2CCC1(CS(=O)(=O)ON1C(=O)c3cccc4c(OCC(F)(F)C(F)F)ccc(c34)C1=O)C(=O)C2 (stereo not drawn)              False
2  O=C1c2cccc3cccc(c23)C(=O)N1OS(=O)(=O)c1c(F)c(F)c(F)c(F)c1F [A′-3, reference compound]              False
3  CC(C)(C)Cc1cc2c3c(cc(CC(C)(C)C)cc3c1)C(=O)N(OS(=O)(=O)CC13CCC(CC1=O)C3(C)C)C2=O (stereo not drawn)              False
4  CC1(C)C2CCC1(CS(=O)(=O)ON1C(=O)c3cccc4cccc(c34)C1=O)C(=O)C2 (stereo not drawn) [A′-5, reference compound]              False
5  CC1(C)C2CC[C@@]1(CS(=O)(=O)ON1C(=O)c3cccc4cc(OC(=O)c5c(F)c(F)c(F)c(F)c5F)cc(c34)C1=O)C(=O)C2               True

---

- assay: Solvent solubility (butyl acetate, toluene or PGMEA)
- Format: physicochemical
- condition_label: butyl acetate, 25° C.
Recorded measurements of Solvent solubility Butyl acetate, one per entry
measurement_label: Solvent solubility Butyl acetate

>>> df
                                   compound                 measurement_label    result
0  O=C1c2cccc3c(Br)ccc(c23)C(=O)N1OS(=O)(=O)C(F)(F)F  Solvent solubility Butyl acetate  4.5 wt %
1  O=C1c2cccc3cccc(c23)C(=O)N1OS(=O)(=O)C(F)(F)F [A′-1, reference compound]  Solvent solubility Butyl acetate    2 wt %
2  C[Si](C)(C)c1ccc2c3c(cccc13)C(=O)N(OS(=O)(=O)c1c(F)c(F)c(F)c(F)c1F)C2=O  Solvent solubility Butyl acetate  5.5 wt %
3  CCCOc1ccc2c3c(cccc13)C(=O)N(OS(=O)(=O)C(F)(F)F)C2=O  Solvent solubility Butyl acetate  4.5 wt %

---

- assay: Solvent solubility (butyl acetate, toluene or PGMEA)
- Assay type: physicochemical
- condition_label: PGMEA, 25° C.
Recorded measurements of Solvent solubility PGMEA, one per entry
measurement_label: Solvent solubility PGMEA (wt %)

>>> df
                                   compound  number
0  CC(C)Oc1ccc2c3c(cccc13)C(=O)N(OS(=O)(=O)C(F)(F)F)C2=O     6.5
1  O=C1c2cc(C34CC5CC(CC(C5)C3)C4)cc3cc(C45CC6CC(CC(C6)C4)C5)cc(c23)C(=O)N1OS(=O)(=O)c1c(F)c(F)c(F)c(F)c1F     5.5
2  O=C1c2cccc3c(OCC(F)(F)C(F)F)ccc(c23)C(=O)N1OS(=O)(=O)C(F)(F)F     7.5
3  COc1cc2c3c(cccc3c1)C(=O)N(OS(=O)(=O)C[C@]13CCC(CC1=O)C3(C)C)C2=O     1.5

---

- assay: Solvent solubility (butyl acetate, toluene or PGMEA)
- Assay type: physicochemical
- condition_label: butyl acetate, 25° C.
Lab note: anything with Solvent solubility Butyl acetate at or over 4 wt % counts as y; the rest go in n.

                                    molecule  assigned_category
 0  O=C(Cc1ccccc1)c1ccc2c3c(cccc13)C(=O)N(OS(=O)(=O)C(F)(F)F)C2=O                  y
 1  CC(C)(C)Cc1cc2c3c(cc(CC(C)(C)C)cc3c1)C(=O)N(OS(=O)(=O)CC13CCC(CC1=O)C3(C)C)C2=O (stereo not shown)                  y
 2  CC1(C)[C@@H]2CC[C@@]1(CS(=O)(=O)ON1C(=O)c3cccc4c([Si](C)(C)C)ccc(c34)C1=O)C(=O)C2                  n
 3  O=C(Oc1cc2c3c(cccc3c1)C(=O)N(OS(=O)(=O)C(F)(F)F)C2=O)c1c(F)c(F)c(F)c(F)c1F                  y
 4  CC(C)Oc1ccc2c3c(cccc13)C(=O)N(OS(=O)(=O)CC13CCC(CC1=O)C3(C)C)C2=O (stereo not shown)                  n
 5  O=C1c2cc(C34CC5CC(CC(C5)C3)C4)cc3cc(C45CC6CC(CC(C6)C4)C5)cc(c23)C(=O)N1OS(=O)(=O)C(F)(F)F                  y
 6  O=C1c2cccc3c(Cl)ccc(c23)C(=O)N1OS(=O)(=O)C(F)(F)F                  y
 7  CC1(C)C2CC[C@@]1(CS(=O)(=O)ON1C(=O)c3cccc4c(Sc5ccccc5)ccc(c34)C1=O)C(=O)C2                  n
 8  O=C1c2cc(C34CC5CC(CC(C5)C3)C4)cc3cc(C45CC6CC(CC(C6)C4)C5)cc(c23)C(=O)N1OS(=O)(=O)c1c(F)c(F)c(F)c(F)c1F                  y
 9  O=C1c2cccc3c(C(F)(F)C(F)(F)C(F)(F)C(F)(F)C(F)(F)C(F)(F)C(F)(F)C(F)(F)F)ccc(c23)C(=O)N1OS(=O)(=O)C(F)(F)F                  y
10  C[Si](C)(C)c1ccc2c3c(cccc13)C(=O)N(OS(=O)(=O)C(F)(F)F)C2=O                  y
11  CC(C)(C)Cc1cc2c3c(cc(CC(C)(C)C)cc3c1)C(=O)N(OS(=O)(=O)C(F)(F)F)C2=O                  y
